Values compiled from patent US7642253B2.

Quick record of pIC50 values for HDAC2 (Homo sapiens, UniProt Q92769).
pIC50: −log10 of the molar value.

Would you please look over these solved cases?
{"smiles code": "Nc1ccccc1NC(=O)c1ccc(CN2C(=O)Nc3ccccc3S2(=O)=O)cc1", "target desc": "HDAC2 (Homo sapiens, UniProt Q92769)", "parameter measured": "pIC50", "observed value": "> 7.30"}
{"smiles code": "CSC1=Nc2cc(C(F)(F)F)ccc2S(=O)(=O)N1Cc1ccc(C(=O)Nc2ccccc2N)cc1", "target desc": "HDAC2 (Homo sapiens, UniProt Q92769)", "parameter measured": "pIC50", "observed value": "< 6.30"}
{"smiles code": "Nc1ccccc1NC(=O)c1ccc(CN2C(=O)NCc3ccccc32)cc1", "target desc": "HDAC2 (Homo sapiens, UniProt Q92769)", "parameter measured": "pIC50", "observed value": "6.30 to 7.00"}
{"smiles code": "Nc1ccccc1NC(=O)c1ccc(CN2C(=O)Nc3cc(C(F)(F)F)ccc3S2(=O)=O)cc1", "target desc": "HDAC2 (Homo sapiens, UniProt Q92769)", "parameter measured": "pIC50", "observed value": "> 7.30"}
{"smiles code": "CN1Cc2ccccc2N(Cc2ccc(C(=O)Nc3ccccc3N)cc2)C1=S", "target desc": "HDAC2 (Homo sapiens, UniProt Q92769)", "parameter measured": "pIC50", "observed value": "> 7.30"}

Request: # value lookup — system HDAC2 (Homo sapiens, UniProt Q92769), readout pIC50, item CCSC1=Nc2ccccc2S(=O)(=O)N1Cc1ccc(C(=O)Nc2ccccc2N)cc1
Response: 6.30 to 7.00

Request: # value lookup — system HDAC2 (Homo sapiens, UniProt Q92769), readout pIC50, item COc1ccc2c(c1)N=C(SC)N(Cc1ccc(C(=O)Nc3ccccc3N)cc1)S2(=O)=O
Response: 7.00 to 7.30

Request: # value lookup — system HDAC2 (Homo sapiens, UniProt Q92769), readout pIC50, item Nc1ccccc1NC(=O)c1ccc(CN2C(=O)Nc3ncc(Cl)cc3S2(=O)=O)cc1
Response: > 7.30

Request: # value lookup — system HDAC2 (Homo sapiens, UniProt Q92769), readout pIC50, item Nc1ccccc1NC(=O)c1ccc(CN2C(=S)Nc3ccccc3S2(=O)=O)cc1
Response: > 7.30

Request: # value lookup — system HDAC2 (Homo sapiens, UniProt Q92769), readout pIC50, item Nc1ccccc1NC(=O)c1ccc(CN2C(=O)Nc3ccc(Br)cc3S2(=O)=O)cc1
Response: > 7.30
